Reference source: patent US20260103522A1

Molecular target: T1, recombinantly expressed human FcεRIa-Fc protein (human, UniProt P12319 26-205)
T1 chain: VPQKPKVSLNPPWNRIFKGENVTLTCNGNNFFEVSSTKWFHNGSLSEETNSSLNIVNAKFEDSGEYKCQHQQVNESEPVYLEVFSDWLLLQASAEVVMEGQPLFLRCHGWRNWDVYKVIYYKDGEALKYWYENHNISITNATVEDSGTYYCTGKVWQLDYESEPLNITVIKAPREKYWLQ
Test: blocking ELISA; blocking human IgE binding
experimentalReadout: pIC50
Please treat pIC50 as minus the base-10 logarithm of the molar concentration.

Exercise: I would be grateful if you could share the reported pIC50 for binding protein DB177 (designed binder) CSRDFTPPTVKILQSSCDGGGHFPPTIQLLCLVSGYTPGTINITWLEDGQVMDVDLSTASTTQEGELASTQSELTLSQKHWLSDRTYTCQVTYQGHTFEDSTKKCADSNPRGVSVFLFPPKPKDTLMISRTPEVTCVVVDLAPSKGTVKFNWYVDGVEVHNAKTKPREKQRNGTLTVVSVLTVLHQDWLNGKEYKCKVTHPHLPRALEKTISKAKGQPREPQVYTLPPSREEMTKNQVSLTCLVKGFYPSDIAVEWESNGQPENNYKTTPPVLDSDGSFFLYSKLTVDKSRWQQGNVFSCSVMHEALHNHYTQKSLSLSPGK .
Key: 7.73

Exercise: Here is the next binder: binding protein DB364 (designed binder) DFTPPTVKILQSSCDGGGHFPPTIQLLCLVSGYTPGTINITWLEDGQVMDVDLSTASTTQEGELASTQSELTLSQKHWLSDRTYTCQVTYQGHTFEDSTKKCADSNPRGVSVFLFPPKPKDTLMISRTPEVTCVVVDLAPSKGTVKFNWYVDGVEVHNAKTKPREKQRNGTLTVVSVLTVLHQDWLNGKEYKCKVTHPHLPRALEKTISKAKGQPREPQVYTLPPSREEMTKNQVSLTCLVKGFYPSDIAVEWESNGQPENNYKTTPPVLDSDGSFFLYSKLTVDKSRWQQGNVFSCSVMHEALHNHYTQKSLSLSPGK
Key: 7.80

Exercise: Here is the next binder: binding protein DB365 (designed binder) TKKCADSNPRGVSVFLFPPKPKDTLMISRTPEVTCVVVDLAPSKGTVKFNWYVDGVEVHNAKTKPREKQRNGTLTVVSVLTVLHQDWLNGKEYKCKVTHPHLPRALEKTISKAKGQPREPQVYTLPPSREEMTKNQVSLTCLVKGFYPSDIAVEWESNGQPENNYKTTPPVLDSDGSFFLYSKLTVDKSRWQQGNVFSCSVMHEALHNHYTQKSLSLSPGK
Key: 7.89
